// provenance: ChEMBL document CHEMBL4196091

Experimental Protocol: Selectivity index, ratio of IC50 for HEK293 cells to IC50 for human A549 cells
Condition Description: HEK293 cells versus A549 cells
Value Type: selectivity ratio
Lab note: write the figure by itself, no unit.

Prompt line: Any idea what its selectivity ratio is? The compound is "CCCCCc1ccc(C(=O)N[C@H]2CCc3cc(OC)c(OC)c(OC)c3-c3ccc(OC)c(=O)cc32)cc1"
Response line: 1.3

----------
System: MCF7
Experimental Protocol: Antiproliferative activity against human MCF7 cells after 2 days by MTT assay
Type: functional, cell-based
Condition Description: MCF7, 48 h
Let's look at some compounds and their measured pIC50.
A value of pIC50 is the negative decimal logarithm of a concentration given in moles per litre.

Structure Notation	Numeric Result
COc1cc2c(c(OC)c1OC)-c1ccc(OC)c(=O)cc1[C@@H](NC(=O)c1ccccc1C)CC2	8.69
COc1cc2c(c(OC)c1OC)-c1ccc(OC)c(=O)cc1[C@@H](NC(=O)CC1CCCCC1)CC2	8.05
COc1cc2c(c(OC)c1OC)-c1ccc(OC)c(=O)cc1[C@@H](NC(=O)c1ccc(C)cc1)CC2	7.51
COc1cc2c(c(OC)c1OC)-c1ccc(OC)c(=O)cc1[C@@H](NC(=O)CI)CC2	8.39
COc1cc2c(c(OC)c1OC)-c1ccc(OC)c(=O)cc1[C@@H](NC(=O)CCl)CC2	7.54

Prompt line: Give pIC50 (MCF7) of the following compound: "COc1cc2c(c(OC)c1OC)-c1ccc(OC)c(=O)cc1[C@@H](NC(=O)CBr)CC2"
Response line: 7.79
